molecular target: human RXFP1 (Homo sapiens, UniProt Q9HBX9); assay: RXFP1 Hu cAMP (Test A); format: cell-based; set-up: expressed in transfected cells; host or cells: Jump-In T-REx CHO-K1 cells (ThermoFisher), induced with 10 ng/ml doxycycline for 24 h; conditions: RXFP1 Hu cAMP
Sequence (Q9HBX9 whole entry): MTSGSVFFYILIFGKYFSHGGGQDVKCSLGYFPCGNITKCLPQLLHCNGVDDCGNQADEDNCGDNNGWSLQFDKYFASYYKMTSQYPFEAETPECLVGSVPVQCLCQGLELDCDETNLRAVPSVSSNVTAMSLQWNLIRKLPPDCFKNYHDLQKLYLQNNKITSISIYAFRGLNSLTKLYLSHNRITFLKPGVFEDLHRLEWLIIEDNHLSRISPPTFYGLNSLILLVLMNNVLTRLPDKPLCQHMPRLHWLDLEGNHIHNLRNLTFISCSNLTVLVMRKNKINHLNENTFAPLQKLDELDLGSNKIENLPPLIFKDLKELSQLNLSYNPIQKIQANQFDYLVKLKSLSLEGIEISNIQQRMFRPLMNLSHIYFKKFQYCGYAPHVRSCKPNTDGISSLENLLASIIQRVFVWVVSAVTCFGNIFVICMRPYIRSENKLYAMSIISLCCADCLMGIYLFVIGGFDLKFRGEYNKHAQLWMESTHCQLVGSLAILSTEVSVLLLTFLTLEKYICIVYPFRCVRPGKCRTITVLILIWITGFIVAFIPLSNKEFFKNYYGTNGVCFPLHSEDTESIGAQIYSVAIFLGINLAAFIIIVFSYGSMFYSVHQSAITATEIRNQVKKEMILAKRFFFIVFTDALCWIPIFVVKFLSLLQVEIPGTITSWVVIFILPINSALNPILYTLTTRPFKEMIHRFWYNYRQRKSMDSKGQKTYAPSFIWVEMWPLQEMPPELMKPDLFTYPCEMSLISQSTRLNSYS
ENDPOINT: Test A Sinf (%)
Give bare numbers, in %.

Here is how some compounds turned out for Test A Sinf.
COc1cc(F)c(-c2ccn(CCC(=O)O)c(=O)c2)cc1C(=O)N[C@@H]1[C@H]2CC[C@H](C2)[C@@H]1C(=O)Nc1cccc(S(=O)(=O)C(F)(F)F)c1 ... 113
COc1cc(F)c(O[C@H]2CC[C@](CC#N)(C(=O)O)CC2)cc1C(=O)N[C@@H]1[C@H]2CC[C@H](C2)[C@@H]1C(=O)NCC1(C)CCC1 ... 89
COc1cc(C#N)c(O[C@H]2CC[C@@](C)(C(=O)O)CC2)cc1C(=O)N[C@@H]1[C@H]2CC[C@H](C2)[C@@H]1C(=O)NC1(C)CCC1 ... 111

Provide Test A Sinf values for the following items, in order.
1. COc1cc(F)c(O[C@H]2CC[C@@H](C(=O)O)CC2)cc1C(=O)N[C@@H]1[C@H]2CC[C@H](C2)[C@@H]1C(=O)Nc1cccc(C(F)(F)F)c1C
2. COc1cc(F)c(OC2CCC(C)(C(=O)O)CC2)cc1C(=O)NC1COCC1C(=O)NCC1(C)CCC1 (stereo not drawn)

*A*
1: 97; 2: 118

I looked up COc1cc(F)c(-c2ccc(C(=O)O)cc2)cc1C(=O)N[C@@H]1CCC[C@@H]1C(=O)Nc1cccc(S(=O)(=O)C(F)(F)F)c1 (racemic) and its Test A Sinf for human RXFP1 (Homo sapiens, UniProt Q9HBX9) was 81

----------
molecular target: human RXFP1 (Homo sapiens, UniProt Q9HBX9); assay: RXFP1 Hu cAMP (Test A); format: cell-based; set-up: expressed in transfected cells; host or cells: Jump-In T-REx CHO-K1 cells (ThermoFisher), induced with 10 ng/ml doxycycline for 24 h; conditions: RXFP1 Hu cAMP
ENDPOINT: Test A Sinf (%)
Give bare numbers, in %.

COc1cc(F)c(C2CCC(C(=O)O)CC2)cc1C(=O)NC1C2CCC(C2)C1C(=O)Nc1cccc(S(=O)(=O)C(F)(F)F)c1 (centres unmarked) ... 84
COc1cc(F)c(-c2ccc(C[C@@H](C(=O)O)N(C)C)cc2)cc1C(=O)N[C@@H]1[C@H]2CC[C@H](C2)[C@@H]1C(=O)Nc1cccc(S(=O)(=O)C(F)(F)F)c1 (racemic) ... 112
COc1cc(F)c(O[C@H]2CC[C@@H](C(=O)O)CC2)cc1C(=O)N[C@@H]1[C@H]2CC[C@H](C2)[C@@H]1C(=O)N[C@H](C)C(C)(C)C ... 100
COc1cc(C#N)c(O[C@H]2CC[C@@](C)(C(=O)O)CC2)cc1C(=O)N[C@@H]1[C@H]2CC[C@H](C2)[C@@H]1C(=O)NCC(C)(C)CO ... 100

Provide Test A Sinf values for the following items, in order.
1. COc1cc(F)c(-c2cccc([C@@H](C(=O)O)N(C)C)c2)cc1C(=O)N[C@@H]1[C@H]2CC[C@H](C2)[C@@H]1C(=O)Nc1cccc(S(=O)(=O)C(F)(F)F)c1 (racemic)
2. COc1cc(C#N)c(O[C@H]2CC[C@@](C)(C(=O)O)CC2)cc1C(=O)N[C@@H]1[C@H]2CC[C@H](C2)[C@@H]1C(=O)N[C@H]1C[C@@H](C)C1
3. COc1cc(C#N)c(O[C@H]2CC[C@@](C)(C(=O)O)CC2)cc1C(=O)N[C@@H]1[C@H]2CC[C@H](C2)[C@@H]1C(=O)NC1CC(F)(F)C1

*A*
[95, 114, 104]

Provide Test A Sinf values for the following items, in order.
1. COc1cc(C#N)c(O[C@H]2CC[C@@](C)(C(=O)O)CC2)cc1C(=O)N[C@@H]1[C@H]2CC[C@H](C2)[C@@H]1C(=O)NC1CCCC1
2. COc1cc(F)c(O[C@H]2CC[C@@H](C(=O)O)CC2)cc1C(=O)N[C@@H]1[C@H]2CC[C@H](C2)[C@@H]1C(=O)Nc1cccc(S(=O)(=O)C(F)(F)F)c1
3. COc1cc(F)c(O[C@H]2CC[C@@](C)(C(=O)O)CC2)cc1C(=O)N[C@@H]1[C@H]2CC[C@H](C2)[C@@H]1C(=O)N[C@@H](C)C(F)(F)F
4. COc1cc(F)c(OC2CCC(CO)(C(=O)O)CC2)cc1C(=O)N[C@H]1[C@H]2CC[C@H](C2)[C@H]1C(=O)Nc1cccc(S(=O)(=O)C(F)(F)F)c1 (relative stereo)

*A*
1: 95; 2: 102; 3: 116; 4: 93

----------
test: Human Plasma Protein Binding (Test B); assay type: in vitro ADME; conditions: fraction unbound (fu)
Decision: Test B Human Plasma Protein Binding (% free) beneath 2 % free gives Y; Test B Human Plasma Protein Binding (% free) meeting or exceeding 2 % free gives N.

COc1cc(F)c(O[C@H]2CC[C@@](C)(C(=O)O)CC2)cc1C(=O)N[C@@H]1[C@H]2CC[C@H](C2)[C@@H]1C(=O)NC12CC(F)(C1)C2 ... N
COc1cc(F)c(O[C@H]2CC[C@@H](C(=O)O)CC2)cc1C(=O)N[C@@H]1[C@H]2CC[C@H](C2)[C@@H]1C(=O)Nc1cccc(C(F)(F)F)c1C ... Y
COc1cc(C#N)c(O[C@H]2CC[C@@](C)(C(=O)O)CC2)cc1C(=O)N[C@@H]1[C@H]2CC[C@H](C2)[C@@H]1C(=O)NCC1C(C)(C)C1(C)C ... N
COc1cc(F)c(O[C@H]2CC[C@@](C)(C(=O)O)CC2)cc1C(=O)N[C@@H]1[C@H]2CC[C@H](C2)[C@@H]1C(=O)NCC(C)C ... N
COc1cc(F)c(O[C@H]2CC[C@@](C)(C(=O)O)CC2)cc1C(=O)N[C@@H]1CCC[C@@H]1C(=O)NCC1(C)CC1 ... N
COc1cc(F)c(OCCCCC(=O)O)cc1C(=O)N[C@H]1[C@@H](C(=O)Nc2cccc(S(=O)(=O)C(F)(F)F)c2)[C@@H]2C=C[C@H]1C2 (racemic) ... Y
COc1cc(F)c(O[C@H]2CC[C@@](C)(C(=O)O)CC2)cc1C(=O)N[C@@H]1[C@H]2CC[C@H](C2)[C@@H]1C(=O)NCC1(C)CCCCC1 ... N
COc1cc(F)c(-c2ccc(C(=O)O)cc2)cc1C(=O)N[C@H]1[C@@H](C(=O)Nc2cc(F)cc(C(F)(F)F)c2)[C@@H]2C=C[C@H]1C2 (racemic) ... Y

*Q* Hello, I'm reviewing records and need to know if Test B Human Plasma Protein Binding (% free) of COc1cc(F)c(O[C@H]2CC[C@@](C)(C(=O)O)CC2)cc1C(=O)N[C@@H]1[C@H]2CC[C@H](C2)[C@@H]1C(=O)NCC1CCC1 is below 2 % free. Could you check?
*A* Y

*Q* Hello, I'm reviewing records and need to know if Test B Human Plasma Protein Binding (% free) of COc1cc(F)c(O[C@H]2CC[C@@H](C(=O)O)CC2)cc1C(=O)N[C@@H]1[C@H]2CC[C@H](C2)[C@@H]1C(=O)Nc1ccc(S(F)(F)(F)(F)F)cc1 is below 2 % free. Could you check?
*A* Y

----------
assay: Rat Hepatocyte Stability (Test E); assay type: in vitro ADME; details: rat, hepatocytes, geometric mean if run multiple times
Could you please report measured hepatocyte CLint for the items listed next?
Give bare numbers, in µL/min/1e6 cells.

Provide hepatocyte CLint values for the following items, in order.
1. COc1cc(F)c(O[C@H]2CC[C@@H](C(=O)O)CC2)cc1C(=O)N[C@@H]1[C@H]2CC[C@H](C2)[C@@H]1C(=O)Nc1cccc(OC(F)(F)F)c1F
2. CCC(C)CNC(=O)C1C2CCC(C2)C1NC(=O)c1cc(OC2CCC(C(=O)O)CC2)c(F)cc1OC (single isomer, unassigned)
3. COc1cc(F)c(O[C@H]2C[C@@H](C(=O)O)C2)cc1C(=O)NC1[C@H]2CC[C@H](C2)[C@@H]1C(=O)Nc1cccc(S(=O)(=O)C(F)(F)F)c1 (some centres unmarked)
4. COc1cc(C#N)c(O[C@H]2C[C@@]3(C2)C[C@H](C(=O)O)C3)cc1C(=O)N[C@@H]1[C@H]2CC[C@H](C2)[C@@H]1C(=O)NCC1(C)CCC1 (single isomer, unassigned)
5. COc1cc(F)c(O[C@H]2CC[C@@](C)(C(=O)O)CC2)cc1C(=O)N[C@@H]1CCC[C@@H]1C(=O)N[C@@H](C)C1(C)CC1 (racemic)

*A*
1. 49
2. 57
3. 22
4. 21
5. 19
